All figures here come from paper PMC12526058.

- Assay System: Papain (Carica papaya)
- Construct: purchased Sigma
- Assay Remarks: Papain inactivation kinetics, two-step irreversible mechanism
- Format: biochemical
- Applied Conditions: Papain 48nM, Z-FR-MCA 1.5µM, 100 mM sodium phosphate, 1 mM EDTA, pH 6.0
- Text: This is confirmed by kinetic analyses of the reaction of THIA-3 with Papain, used as a diagnostic method as previously reported. The kinetic constant values of the reaction of the ten THIA compounds with Papain, for the reaction paths shown below, are reported in Table S2. Table S2. Values of the kinetic constants for Papain inactivation kinetics analyses by all THIA compounds obtained for a two-step irreversible mechanism (see below the reaction paths) as reported in the reference (31) […]
Binary call on k4, Papain inactivation: Y from 0.02 s⁻¹ upward, N beneath that.

* O=c1sn(-c2ccccc2)c(=O)n1Cc1ccccc1 | N
* O=c1sn(-c2ccc(F)cc2)c(=O)n1-c1ccccc1 | Y
* COc1ccc(-n2sc(=O)n(C3CCCCC3)c2=O)cc1 | N
* Cc1ccc(-n2sc(=O)n(-c3ccccc3)c2=O)cc1 | Y
* O=c1sn(-c2ccccc2)c(=O)n1-c1ccccc1 | N
* COc1ccc(-n2sc(=O)n(-c3ccc(Cl)cc3)c2=O)cc1 | N
* COc1ccc(-n2sc(=O)n(-c3ccccc3)c2=O)cc1 | N
* COc1ccc(-n2sc(=O)n(Cc3ccccc3)c2=O)cc1 | N
* COc1ccc(-n2sc(=O)n(-c3ccc(OC)cc3)c2=O)cc1 | N
* COc1ccc(-n2sc(=O)n(-c3ccc(C)cc3)c2=O)cc1 | Y

----------
- Assay System: UniProt P0DTD1
pIC50: −log10 of the molar value.
Lab note: compare pIC50 against 5. Equal or greater, write 1 (yes). Smaller, write 0 (no).

* COc1ccc(-n2sc(=O)n(-c3ccc(C)cc3)c2=O)cc1 | 1 (yes)
* COc1ccc(-n2sc(=O)n(-c3ccc(Cl)cc3)c2=O)cc1 | 0 (no)
* COc1ccc(-n2sc(=O)n(C3CCCCC3)c2=O)cc1 | 1 (yes)
* O=c1sn(-c2ccccc2)c(=O)n1Cc1ccccc1 | 0 (no)

----------
Some molecules, each annotated with its measured IC50.
- Assay System: SARS-CoV-2 3CLpro (Severe acute respiratory syndrome coronavirus 2, UniProt P0DTD1)
- Assay Remarks: 3CLpro inhibition, IC50 (FRET substrate, 10 min pre-incubation)
- Format: biochemical
- Applied Conditions: IC50 for inhibition of 3CLpro (bound), unit inferred
Measured Endpoint: IC50

* COc1ccc(-n2sc(=O)n(-c3ccc(Cl)cc3)c2=O)cc1 [THIA-7] | < 50 nM
* O=c1sn(-c2ccc(F)cc2)c(=O)n1-c1ccccc1 [THIA-10] | < 50 nM

----------
- Assay System: Papain (Carica papaya, UniProt P00784)
- Construct: purchased Sigma
- Sequence (P00784 134-345): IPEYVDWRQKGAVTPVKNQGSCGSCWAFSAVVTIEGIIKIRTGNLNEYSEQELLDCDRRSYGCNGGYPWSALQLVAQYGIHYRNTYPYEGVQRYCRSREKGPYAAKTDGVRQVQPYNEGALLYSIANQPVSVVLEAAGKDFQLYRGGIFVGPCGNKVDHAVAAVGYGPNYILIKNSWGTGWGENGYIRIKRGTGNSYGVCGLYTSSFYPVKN
- Assay Remarks: Papain inhibition, IC50 (Z-Phe-Arg-MCA substrate, 10 min pre-incubation)
- Format: biochemical
- Applied Conditions: 30 °C, 10 min pre-incubation; 100 mM sodium phosphate, 1 mM EDTA, pH 6.0; Z-Phe-Arg-MCA; Papain 120 nM
Measured Endpoint: IC50 for inhibition of Papain

• COc1ccc(-n2sc(=O)n(C3CCCCC3)c2=O)cc1 [THIA-8] = in the μM range
• COc1ccc(-n2sc(=O)n(Cc3ccccc3)c2=O)cc1 [THIA-2] = in the μM range
• O=c1sn(-c2ccccc2)c(=O)n1Cc1ccccc1 [THIA-1] = in the μM range

----------
- Assay System: SARS-CoV-2 3CLpro (Severe acute respiratory syndrome coronavirus 2, UniProt P0DTD1)
- Assay Remarks: 3CLpro inhibition, IC50 (FRET substrate, 10 min pre-incubation)
- Type: biochemical
- Applied Conditions: unit inferred
Measured Endpoint: IC50

• COc1ccc(-n2sc(=O)n(-c3ccc(OC)cc3)c2=O)cc1 [THIA-6] = < 0.05 µM

----------
log10 IC50 overview
- Assay System: Papain (Carica papaya, UniProt P00784)
Measured Endpoint: log10 IC50 (log10 of the value in nM)

• COc1ccc(-n2sc(=O)n(-c3ccc(OC)cc3)c2=O)cc1 [THIA-6] = 1.00
• COc1ccc(-n2sc(=O)n(C3CCCCC3)c2=O)cc1 [THIA-8] = 3.38
• COc1ccc(-n2sc(=O)n(-c3ccc(Cl)cc3)c2=O)cc1 [THIA-7] = 2.11
• Cc1ccc(-n2sc(=O)n(-c3ccccc3)c2=O)cc1 [THIA-9] = 2.04
• COc1ccc(-n2sc(=O)n(-c3ccc(C)cc3)c2=O)cc1 [THIA-5] = 2.01

----------
- Assay System: SARS-CoV-2 3CLpro (Severe acute respiratory syndrome coronavirus 2, UniProt P0DTD1)
- Assay Remarks: 3CLpro inhibition, IC50 (FRET substrate, 10 min pre-incubation)
- Format: biochemical
- Applied Conditions: IC50 for inhibition of 3CLpro, 30 °C, 10 min pre-incubation; 50 mM Tris, 1 mM EDTA, pH 7.5; Abz-[…](Dnp)-NH2; 3CLpro 27 nM
Measured Endpoint: IC50 (nM)

- COc1ccc(-n2sc(=O)n(-c3ccc(C)cc3)c2=O)cc1: 90
- O=c1sn(-c2ccccc2)c(=O)n1Cc1ccccc1: 130
- COc1ccc(-n2sc(=O)n(-c3ccc(OC)cc3)c2=O)cc1: 30
- COc1ccc(-n2sc(=O)n(-c3ccccc3)c2=O)cc1: 130
- Cc1ccc(-n2sc(=O)n(-c3ccccc3)c2=O)cc1: 160

----------
- Assay System: Papain (Carica papaya, UniProt P00784)
- Construct: purchased Sigma
- Assay Remarks: Papain inactivation kinetics, two-step irreversible mechanism
- Format: biochemical
- Applied Conditions: Papain 48nM, Z-FR-MCA 1.5µM, 100 mM sodium phosphate, 1 mM EDTA, pH 6.0; read-out: Ki, Papain inactivation (Ki = k-3/k3)
Measured Endpoint: KI (inactivation) (nM)

• COc1ccc(-n2sc(=O)n(-c3ccccc3)c2=O)cc1 = 80
• COc1ccc(-n2sc(=O)n(-c3ccc(Cl)cc3)c2=O)cc1 = 160
• COc1ccc(-n2sc(=O)n(Cc3ccccc3)c2=O)cc1 = 320
• Cc1ccc(-n2sc(=O)n(-c3ccccc3)c2=O)cc1 = 340
• O=c1sn(-c2ccc(F)cc2)c(=O)n1-c1ccccc1 = 310
• COc1ccc(-n2sc(=O)n(C3CCCCC3)c2=O)cc1 = 680
• COc1ccc(-n2sc(=O)n(-c3ccc(OC)cc3)c2=O)cc1 = 270
• COc1ccc(-n2sc(=O)n(-c3ccc(C)cc3)c2=O)cc1 = 270
• O=c1sn(-c2ccccc2)c(=O)n1-c1ccccc1 = 170
• O=c1sn(-c2ccccc2)c(=O)n1Cc1ccccc1 = 260

----------
The reader will find pIC50 measurements below, all made with Papain (Carica papaya, UniProt P00784).
pIC50: −log10 of the molar value.
Measured Endpoint: pIC50

- O=c1sn(-c2ccccc2)c(=O)n1-c1ccccc1 [THIA-3]: 6.85
- O=c1sn(-c2ccccc2)c(=O)n1Cc1ccccc1 [THIA-1]: 5.67
- COc1ccc(-n2sc(=O)n(Cc3ccccc3)c2=O)cc1 [THIA-2]: 5.89

----------
A collection of molecules and their measured k3, Papain inactivation
- Assay System: Papain (Carica papaya, UniProt P00784)
- Construct: purchased Sigma
- Assay Remarks: Papain inactivation kinetics, two-step irreversible mechanism
- Type: biochemical
- Applied Conditions: Papain 48nM, Z-FR-MCA 1.5µM, 100 mM sodium phosphate, 1 mM EDTA, pH 6.0
Measured Endpoint: k3, Papain inactivation (µM/s)

- COc1ccc(-n2sc(=O)n(Cc3ccccc3)c2=O)cc1 [THIA-2]: 24.6
- O=c1sn(-c2ccc(F)cc2)c(=O)n1-c1ccccc1 [THIA-10]: 13.7
- Cc1ccc(-n2sc(=O)n(-c3ccccc3)c2=O)cc1 [THIA-9]: 14.5
- O=c1sn(-c2ccccc2)c(=O)n1-c1ccccc1 [THIA-3]: 19.7
- O=c1sn(-c2ccccc2)c(=O)n1Cc1ccccc1 [THIA-1]: 19.9
- COc1ccc(-n2sc(=O)n(-c3ccc(C)cc3)c2=O)cc1 [THIA-5]: 12.3
- COc1ccc(-n2sc(=O)n(-c3ccccc3)c2=O)cc1 [THIA-4]: 4.9
- COc1ccc(-n2sc(=O)n(-c3ccc(Cl)cc3)c2=O)cc1 [THIA-7]: 17.3
- COc1ccc(-n2sc(=O)n(-c3ccc(OC)cc3)c2=O)cc1 [THIA-6]: 14.5
- COc1ccc(-n2sc(=O)n(C3CCCCC3)c2=O)cc1 [THIA-8]: 109.9

----------
- Assay System: SARS-CoV-2 PLpro (Severe acute respiratory syndrome coronavirus 2)
Measured Endpoint: IC50 (µM)

• O=c1sn(-c2ccccc2)c(=O)n1-c1ccccc1 = 8.5
• COc1ccc(-n2sc(=O)n(Cc3ccccc3)c2=O)cc1 = 8.3
• Cc1ccc(-n2sc(=O)n(-c3ccccc3)c2=O)cc1 = 10.4
• COc1ccc(-n2sc(=O)n(-c3ccc(OC)cc3)c2=O)cc1 = 12.5
• O=c1sn(-c2ccc(F)cc2)c(=O)n1-c1ccccc1 = 10
• COc1ccc(-n2sc(=O)n(-c3ccccc3)c2=O)cc1 = 7.6
